# Test Details: amyloid nucleation score (Sup35N fusion, yeast selection) (log enrichment); library NNK3; higher = more nucleation; inactive = no reads after selection;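 also: zero at mode of non-aggregating sequences after 7 days selection at 30°C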

Substance: YYVTQGVRVGQYLTNRERDE
amyloid nucleation score: -0.195
--
Substance: YREVYLNRRLERL
amyloid nucleation score: inactive
--
Substance: RAGDNIFWTIAKCTRNTHVM
amyloid nucleation score: inactive
--
Substance: HLYHENSVFQLCVCTFVYSS
amyloid nucleation score: 2.91
--
Substance: HFSYKSKCVGGRFLNDIDVY
amyloid nucleation score: inactive
--
Substance: KVILPWKLWADGWRDY
amyloid nucleation score: inactive
--
Substance: KTLIRASWSLSC
amyloid nucleation score: inactive
--
Substance: CFVAGYRSIGLLRFITIFCV
amyloid nucleation score: inactive
--
Substance: VLNSIGPYVMTKR
amyloid nucleation score: 0.139
--
Substance: YFVSVGRNKELRGLFTRLVV
amyloid nucleation score: inactive
--
Substance: LCETCKNVARIYSFLIGMTD
amyloid nucleation score: inactive
--
Substance: GCHLVSCRRTGAL
amyloid nucleation score: inactive
--
Substance: NVGWIWPYM
amyloid nucleation score: inactive
--
Substance: PSSSDGSMHLYIILQTLLFF
amyloid nucleation score: 1.49
--
Substance: VLKASNFV
amyloid nucleation score: inactive
--
Substance: HSAYVVKWSSRTTPKFFSLW
amyloid nucleation score: inactive
--
Substance: VVVSERVREMRDYNVLLRCT
amyloid nucleation score: inactive
--
Substance: FTAWTLLLSGMFVIASANMA
amyloid nucleation score: inactive
--
Substance: NSQKVIYKPFEAIYVTGTLT
amyloid nucleation score: inactive
--
Substance: NFMCFLVFHDLYEGQGYELR
amyloid nucleation score: 2.3
--
Substance: SYYFMGHLVFSVQTCIYTQG
amyloid nucleation score: 0.004
--
Substance: MVNMTI
amyloid nucleation score: inactive
--
Substance: VLPENIILNFIQMSDNRFLL
amyloid nucleation score: 1.8
--
Substance: YKYGPARCRKRGDSCAKGGG
amyloid nucleation score: inactive
--
Substance: VQPVGSSKGVRGVE
amyloid nucleation score: 0.983
--
Substance: VHSPWVNNLYQCWTYYFLLL
amyloid nucleation score: 0.162
--
Substance: TSLASNFANVTSVTCY
amyloid nucleation score: -0.679
--
Substance: YIGRAGQFDRRFFGSLCCAM
amyloid nucleation score: inactive
--
Substance: GNIAELVSGREVYNYVN
amyloid nucleation score: -0.075
--
Substance: YLVAKDVSCNWVVTDGRLCH
amyloid nucleation score: inactive
--
Substance: RTRSVLQIWLSFMMLCQACW
amyloid nucleation score: -0.534
--
Substance: IVVCAQTLHSLGPRPIEPTQ
amyloid nucleation score: inactive
--
Substance: YGHSRWSKISHRSSACLFGS
amyloid nucleation score: inactive
--
Substance: IILQNFPNRKYMCLGAKMAS
amyloid nucleation score: inactive
--
Substance: GQWDYLLTQYKNIK
amyloid nucleation score: -1.01
--
Substance: CRRPKRNH
amyloid nucleation score: inactive
--
Substance: FPSVIINLGISFFLSSELIV
amyloid nucleation score: 1.08
--
Substance: NIGNHYCRYNGWDMLNRGEL
amyloid nucleation score: inactive
--
Substance: KSVYMHTGPGKGNRVVEKCM
amyloid nucleation score: inactive
--
Substance: YNFVPVFHVNMSVFLCILVL
amyloid nucleation score: 2.43
--
Substance: IDTISMG
amyloid nucleation score: inactive
--
Substance: CMMSWIDSNFRGSEMLTH
amyloid nucleation score: inactive
--
Substance: RGGTASQVFMCFKLVFRSRY
amyloid nucleation score: -0.14
--
Substance: KCLKCKTGLCTMQGEYNRSY
amyloid nucleation score: -0.475
--
Substance: NLSVIMLVVCMLTINNIYMS
amyloid nucleation score: 1.29
--
Substance: FMGTRTKLMALVYQEELSRS
amyloid nucleation score: inactive
--
Substance: IGFAGSVM
amyloid nucleation score: inactive
--
Substance: FYCLHSMLKMGEDVRAMNLD
amyloid nucleation score: inactive
--
Substance: TWRYRKMYYRSDVNHCLFEV
amyloid nucleation score: inactive
--
Substance: FPKLWLFNYYVNRRIRSSSF
amyloid nucleation score: inactive
--
Substance: RLGLSAMSFCLCDSTSIATY
amyloid nucleation score: inactive
--
Substance: LTTICS
amyloid nucleation score: inactive
--
Substance: KSMATMSQIVPDSFSEFDWY
amyloid nucleation score: inactive
--
Substance: HSCFCQCVSARYCDYSSVTR
amyloid nucleation score: inactive
--
Substance: RCYKKVYLMLAVRLAPFGLG
amyloid nucleation score: inactive
--
Substance: LYRPCLWSDWRT
amyloid nucleation score: inactive
--
Substance: GGCGMDV
amyloid nucleation score: inactive
--
Substance: IESVRKHGGCTAFVSSWYVM
amyloid nucleation score: inactive
--
Substance: TLSKILLLSRYLYTRLKVRL
amyloid nucleation score: inactive
--
Substance: CLLSYSQPLGKGFGSTRDRC
amyloid nucleation score: inactive
--
Substance: LVFGLLLS
amyloid nucleation score: inactive
--
Substance: LIKWFSFRWLVTILVIDQTY
amyloid nucleation score: inactive
--
Substance: LRGYLHWLCSECSVLVSAVA
amyloid nucleation score: inactive
--
Substance: DVTYECGRS
amyloid nucleation score: inactive
--
Substance: SPDTVPIGGSSGTNVYLCMH
amyloid nucleation score: inactive
--
Substance: VKYVNEPVSHSIDWIPSPFP
amyloid nucleation score: 0.559
--
Substance: FYTWLPCVYSN
amyloid nucleation score: -0.335
--
Substance: LFSSRYDLIDVNVRGVDYSQ
amyloid nucleation score: inactive
--
Substance: QFSRPGIFNFHRWDSRYRAA
amyloid nucleation score: inactive
--
Substance: ILVLTKRVCYGSLFRYAWAK
amyloid nucleation score: inactive
--
Substance: QQYSTAYYIHGFTKMVGVVA
amyloid nucleation score: 0.298
